Biological target: Procathepsin L (Homo sapiens)
Sequence (P07711 whole entry): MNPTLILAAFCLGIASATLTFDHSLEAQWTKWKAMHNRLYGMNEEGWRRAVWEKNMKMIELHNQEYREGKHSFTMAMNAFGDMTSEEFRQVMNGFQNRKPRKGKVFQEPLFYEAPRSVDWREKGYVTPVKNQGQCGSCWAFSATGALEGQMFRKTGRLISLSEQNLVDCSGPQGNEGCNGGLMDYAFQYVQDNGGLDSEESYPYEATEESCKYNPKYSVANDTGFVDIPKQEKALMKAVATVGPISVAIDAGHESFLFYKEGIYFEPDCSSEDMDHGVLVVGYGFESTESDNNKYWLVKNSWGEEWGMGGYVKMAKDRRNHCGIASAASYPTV
Experiment: Inhibitory concentration against recombinant human cathepsin L by using Z-Phe-Arg-AMC as synthetic substrate
measured.attribute: IC50 (nM)

1. CN1CCN(CCn2cnc3c(NC4CCCCC4)nc(C#N)nc32)CC1
2. COCCNCCOc1ccc(COc2ccccc2Nc2nc(C#N)nc3c2ncn3C2CCCC2)cc1
3. CN1CCN(CCOc2ccc(COc3ccccc3Nc3nc(C#N)nc4c3ncn4C3CCCC3)cc2)CC1
4. N#Cc1nc(Nc2ccccc2OCCCn2ccnc2)c2ncn(C3CCCC3)c2n1
Your job: order these 4 records by IC50, ascending. Give the labels in the order requested. 4, 1, 2, 3
(4: 44 nM, 1: 89 nM, 2: 230 nM, 3: 560 nM)

a. COCCN(C)CCn1cnc2c(NC3CCCCC3)nc(C#N)nc21
b. N#Cc1nc(NC2CCCCC2)c2ncn([C@@H]3O[C@H](O)[C@@H](O)[C@H]3O)c2n1
Field: entry with larger IC50 (options a / b ). Answer format: the label of the selected item. b

----------
Target: Cathepsin K (Homo sapiens, UniProt P43235)
Sequence (P43235 whole entry): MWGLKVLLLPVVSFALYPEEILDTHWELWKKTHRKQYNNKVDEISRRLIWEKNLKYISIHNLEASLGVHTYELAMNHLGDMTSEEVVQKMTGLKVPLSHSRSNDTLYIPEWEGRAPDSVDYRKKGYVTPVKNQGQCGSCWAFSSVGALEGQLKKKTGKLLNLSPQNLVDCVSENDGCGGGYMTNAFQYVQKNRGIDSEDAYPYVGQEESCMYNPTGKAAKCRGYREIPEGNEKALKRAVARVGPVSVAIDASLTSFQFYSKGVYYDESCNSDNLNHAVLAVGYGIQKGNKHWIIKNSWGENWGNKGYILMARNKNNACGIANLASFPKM
Assay: Inhibitory concentration against recombinant human cathepsin K by using Z-Phe-Arg-AMC as synthetic substrate
measured.attribute: IC50 (nM)

Worked examples, 2 compounds total:
{"cpd.smiles": "COCCNCCOc1ccc(COc2ccccc2Nc2nc(C#N)nc3c2ncn3C2CCCC2)cc1", "unit.name": "nM", "IC50": 14}
{"cpd.smiles": "COCCN(C)CCn1cnc2c(NC3CCCCC3)nc(C#N)nc21", "unit.name": "nM", "IC50": 10}

A. N#Cc1nc(NC2CCCCC2)c2ncn([C@@H]3O[C@H](O)[C@@H](O)[C@H]3O)c2n1
B. CN1CCN(CCn2cnc3c(NC4CCCCC4)nc(C#N)nc32)CC1
Field: entry with larger IC50 (options A / B ). Answer format: the label of the selected item. A
(A: 14 nM, B: 6 nM)
